Tested on: PPARg homodimer (NR concentration 180 nM)
Assay: PBM binding z-score (relative to random genomic background probes); higher = stronger binding; sequences stand for … in GC…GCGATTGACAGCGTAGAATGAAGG
Outcome: satisfied for PBM binding z-score of at least 1; not satisfied for anything lower.

Known results for sequences:
[[record]]
macromolecule_sequence = "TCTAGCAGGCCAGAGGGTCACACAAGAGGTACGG"
assigned_class = "satisfied"

[[record]]
macromolecule_sequence = "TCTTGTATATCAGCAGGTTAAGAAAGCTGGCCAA"
assigned_class = "not satisfied"

[[record]]
macromolecule_sequence = "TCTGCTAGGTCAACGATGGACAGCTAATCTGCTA"
assigned_class = "satisfied"


Inquiry: In plain terms: is recorded PBM binding z-score at least 1 for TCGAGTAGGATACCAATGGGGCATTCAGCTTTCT ?
Reply text: not satisfied

Inquiry: Tell me whether PBM binding z-score is at least 1 here: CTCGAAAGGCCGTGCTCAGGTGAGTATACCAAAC
Reply text: not satisfied

Inquiry: Given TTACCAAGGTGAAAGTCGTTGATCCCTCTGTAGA , state whether its PBM binding z-score is at least 1.
Reply text: not satisfied

Inquiry: Entry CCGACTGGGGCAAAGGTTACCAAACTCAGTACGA : is its PBM binding z-score no less than 1?
Reply text: satisfied

* * *

System: PPARg:RXRa 270nM:90nM, anti-RXR (NR concentration 270 nM, RXRa partner concentration 90 nM)
Experiment: PBM binding z-score (relative to random genomic background probes); higher = stronger binding; sequences stand for … in GC…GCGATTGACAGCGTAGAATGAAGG
Could you please report measured PBM binding z-score for the items listed next?
Answers are plain numbers.

Consider the following illustrative entries.
[[record]]
macromolecule_sequence = "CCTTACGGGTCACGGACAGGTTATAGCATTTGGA"
endpoint_value = 6.56

[[record]]
macromolecule_sequence = "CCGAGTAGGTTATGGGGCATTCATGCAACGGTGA"
endpoint_value = 4.6

[[record]]
macromolecule_sequence = "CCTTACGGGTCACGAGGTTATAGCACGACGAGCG"
endpoint_value = 6.6

[[record]]
macromolecule_sequence = "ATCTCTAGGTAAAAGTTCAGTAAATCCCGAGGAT"
endpoint_value = 7.37

[[record]]
macromolecule_sequence = "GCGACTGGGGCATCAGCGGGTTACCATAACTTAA"
endpoint_value = 0.669

[[record]]
macromolecule_sequence = "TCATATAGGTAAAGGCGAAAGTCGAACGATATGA"
endpoint_value = 2.52


Each of the following entries comes with a recorded value; kindly state PBM binding z-score for each.
1. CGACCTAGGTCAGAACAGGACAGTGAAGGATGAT
2. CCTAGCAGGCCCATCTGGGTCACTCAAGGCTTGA
3. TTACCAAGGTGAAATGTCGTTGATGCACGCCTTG

Reply text:
1.2
0.743
3.4

Provide reported PBM binding z-score for each item, in the same order as listed.
1. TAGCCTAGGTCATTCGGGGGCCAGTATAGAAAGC
2. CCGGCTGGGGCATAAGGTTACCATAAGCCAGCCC
3. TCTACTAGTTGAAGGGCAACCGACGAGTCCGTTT

Reply text:
1: 4.12; 2: 1.5; 3: 1.58

* * *

Tested on: RARb homodimer (NR concentration 270 nM)
Experiment: PBM binding z-score (relative to random genomic background probes); higher = stronger binding; sequences stand for … in GC…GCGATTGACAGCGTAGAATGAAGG
PROPERTY MEASURED: PBM binding z-score
Answers are plain numbers.

Below: 5 sequences and their reported PBM binding z-score.
[[record]]
macromolecule_sequence = "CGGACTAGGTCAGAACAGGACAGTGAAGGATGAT"
measurement_target = "RARb homodimer (NR concentration 270 nM)"
endpoint_value = 1.79

[[record]]
macromolecule_sequence = "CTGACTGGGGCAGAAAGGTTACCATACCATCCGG"
measurement_target = "RARb homodimer (NR concentration 270 nM)"
endpoint_value = 2.57

[[record]]
macromolecule_sequence = "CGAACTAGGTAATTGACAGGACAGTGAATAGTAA"
measurement_target = "RARb homodimer (NR concentration 270 nM)"
endpoint_value = 0.027

[[record]]
macromolecule_sequence = "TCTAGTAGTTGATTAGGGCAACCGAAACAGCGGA"
measurement_target = "RARb homodimer (NR concentration 270 nM)"
endpoint_value = 0.439

[[record]]
macromolecule_sequence = "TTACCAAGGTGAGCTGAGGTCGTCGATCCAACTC"
measurement_target = "RARb homodimer (NR concentration 270 nM)"
endpoint_value = 1.49


// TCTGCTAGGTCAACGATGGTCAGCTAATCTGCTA : PBM binding z-score value = 3.36
